Catalogue of molecules with associated AUC
Test Details: Pharmacokinetics assay in BALB/C nude mice after intragastrical administration
Type: in vivo
Condition Summary: female, mouse, po, 3 mg/kg, plasma, read-out: Area Under Curve AUC
The reply should read as a number followed by its unit.

# count of solved cases: 8
>>> measured_result("CCn1cc(-c2ccc3c(c2)C[C@@H](C)N(c2ccc(C4CC4)cc2)[C@@H]3c2ccc(/C=C/C(=O)O)cc2)cn1 [Example 14]")
"14800 ng·h/mL"
>>> measured_result("CCn1cc(-c2ccc3c(c2)C[C@@H](C)N(c2ccc(C(C)C)cc2)[C@@H]3c2ccc(/C=C/C(=O)O)cc2)cn1 [Example 8]")
"9380 ng·h/mL"
>>> measured_result("CC1Cc2cc(-c3cnn(C)c3)ccc2C(c2ccc(/C=C/C(=O)O)cc2)N1c1ccc(C2CC2)cc1 (stereo not drawn) [Example 10]")
"6280 ng·h/mL"
>>> measured_result("CC(C)c1ccc(N2[C@H](c3ccc(/C=C/C(=O)O)cc3)c3ccc(-c4cnn(C)c4)cc3C[C@H]2C)cc1 [Example 42]")
"11200 ng·h/mL"
>>> measured_result("CCn1cc(-c2ccc3c(c2)CC(C)N(c2ccc(C(C)C)cc2)C3c2ccc(/C=C/C(=O)O)cc2)cn1 (stereo not drawn) [Example 7]")
"12900 ng·h/mL"
>>> measured_result("C[C@@H]1Cc2cc(-c3cnn(C)c3)ccc2[C@@H](c2ccc(/C=C/C(=O)O)cc2)N1c1ccc(C2CC2)cc1 [Example 11]")
"16400 ng·h/mL"
>>> measured_result("CC(C)c1ccc(N2C(C)Cc3cc(-c4cnn(C)c4)ccc3C2c2ccc(/C=C/C(=O)O)cc2)cc1 (stereo not drawn) [Example 16]")
"9120 ng·h/mL"
>>> measured_result("CCc1ccc(N2C(C)Cc3cc(-c4cnn(C)c4)ccc3C2c2ccc(/C=C/C(=O)O)cc2)cc1 (stereo not drawn) [Example 1]")
"14400 ng·h/mL"

// next entry
Returns the measured AUC for the input molecule. Input: CC(C)c1ccc(N2[C@H](c3c(F)cc(/C=C/C(=O)O)cc3F)c3ccc(-c4cnn(C)c4)cc3C[C@H]2C)cc1 [Example 39] 10200 ng·h/mL
